meta.source: patent US20260028321A1

TESTED_TARGET: HDAC6 human recombinant (Homo sapiens (Human))
Sequence (Q9UBN7 whole entry): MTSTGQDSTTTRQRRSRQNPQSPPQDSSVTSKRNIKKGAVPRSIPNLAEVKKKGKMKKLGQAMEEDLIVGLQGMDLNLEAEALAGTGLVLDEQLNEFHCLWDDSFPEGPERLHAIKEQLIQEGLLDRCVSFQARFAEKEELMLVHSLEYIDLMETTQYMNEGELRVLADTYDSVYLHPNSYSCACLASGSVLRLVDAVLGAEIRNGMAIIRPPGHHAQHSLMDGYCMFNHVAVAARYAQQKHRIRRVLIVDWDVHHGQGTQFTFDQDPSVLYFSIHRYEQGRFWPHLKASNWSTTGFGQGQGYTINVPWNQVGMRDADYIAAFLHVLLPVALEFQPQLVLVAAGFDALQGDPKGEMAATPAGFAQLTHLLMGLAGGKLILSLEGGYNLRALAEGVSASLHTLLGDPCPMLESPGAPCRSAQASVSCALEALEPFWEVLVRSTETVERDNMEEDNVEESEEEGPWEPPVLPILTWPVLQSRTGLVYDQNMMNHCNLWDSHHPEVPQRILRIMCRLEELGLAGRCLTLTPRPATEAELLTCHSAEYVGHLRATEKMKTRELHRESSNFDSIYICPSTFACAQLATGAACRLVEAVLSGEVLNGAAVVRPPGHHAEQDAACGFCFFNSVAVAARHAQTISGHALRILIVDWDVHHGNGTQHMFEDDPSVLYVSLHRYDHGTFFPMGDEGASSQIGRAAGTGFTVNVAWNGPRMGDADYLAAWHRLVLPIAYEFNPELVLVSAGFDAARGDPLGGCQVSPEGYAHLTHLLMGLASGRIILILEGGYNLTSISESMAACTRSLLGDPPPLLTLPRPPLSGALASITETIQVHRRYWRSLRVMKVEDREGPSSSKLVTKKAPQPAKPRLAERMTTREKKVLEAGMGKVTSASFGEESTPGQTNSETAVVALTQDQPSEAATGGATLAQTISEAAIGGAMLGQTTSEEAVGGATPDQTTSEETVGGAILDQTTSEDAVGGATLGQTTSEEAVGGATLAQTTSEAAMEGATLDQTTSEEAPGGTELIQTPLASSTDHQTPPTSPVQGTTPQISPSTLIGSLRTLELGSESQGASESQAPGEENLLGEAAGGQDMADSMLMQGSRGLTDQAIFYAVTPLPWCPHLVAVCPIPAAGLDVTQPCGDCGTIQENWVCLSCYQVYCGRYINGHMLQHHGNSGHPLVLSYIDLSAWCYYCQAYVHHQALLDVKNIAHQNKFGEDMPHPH
TEST_NAME: HDAC6 enzyme activity inhibition assay (fluorimetric)
CONDITIONS_USED: test substance 0.1-1000 nM; 37° C. 60 minutes, developer 30 minutes; fluorescence Ex 390, Em 460
PARAMETER: IC50 (nM)

> print(dat)
                               query.smiles  parameter  measured.value
1  O=c1c(N2CCOCC2)c(N(Cc2ccc(-c3nnc(C(F)(F)F)o3)cc2)c2ccccc2)c1=O       IC50             161

(a) CN1CCN(c2c(N(Cc3ccc(-c4nnc(C(F)F)o4)cc3F)c3ccccc3)c(=O)c2=O)CC1
(b) CN1CCN(c2c(N(Cc3ccc(-c4nnc(C(F)F)o4)cc3F)c3cc(F)cc(Br)c3)c(=O)c2=O)CC1
(c) CN1CC2(C1)CN(c1c(N(Cc3ccc(-c4nnc(C(F)F)o4)cc3)c3ccccc3)c(=O)c1=O)C2
-- ask // smallest IC50 at index 0, largest at the end Response format: the labels, sorted as the prompt asks.
-- reply a, b, c
(a: 22 nM, b: 36 nM, c: 60 nM)
